Here, each record is paired with measured Delta TC data.
Test system: Rattus norvegicus
Experiment: Percent change in total cholesterol level in cholic acid (0.5%),cholesterol(1.5%),peanut oil(5.5%) fed rats at 30 mg/kg.
Type: functional
Respond numerically; units are % and should not be typed.

Reference set, count: 3
{"MOLECULE": "CCCCCCCCOC(=O)C(C(=O)Nc1c(C(C)C)cccc1C(C)C)c1ccccc1 (centres undefined)", "UNIT_STRING": "%", "EXPERIMENTAL_VALUE": -56}
{"MOLECULE": "CCCCCCCCCCCCCCC(C)(C)OC(=O)C(C(=O)Nc1c(C(C)C)cccc1C(C)C)c1ccccc1 (centres undefined)", "UNIT_STRING": "%", "EXPERIMENTAL_VALUE": -37}
{"MOLECULE": "CCCCCCCCCCCCOC(=O)C(C(=O)Nc1c(C(C)C)cc(C(C)C)cc1C(C)C)c1ccccc1 (centres undefined)", "UNIT_STRING": "%", "EXPERIMENTAL_VALUE": -21}

Moving on to the next molecule.
Ask | Suppose we examine the molecule CCCCCCCCCOC(=O)C(C(=O)Nc1c(C(C)C)cccc1C(C)C)c1ccccc1 (centres undefined) ; what Delta TC value has been reported?
Reply | -67

----------
Here, each record is paired with measured Delta TC data.
Test system: Rattus norvegicus
Experiment: Percent change in total cholesterol level in cholic acid (0.5%),cholesterol(1.5%),peanut oil(5.5%) fed rats at 30 mg/kg.
Format: functional
Respond numerically; units are % and should not be typed.

Reference set, count: 8
{"COMPOUND": "CCCCCC(C)OC(=O)C(C(=O)Nc1c(C(C)C)cccc1C(C)C)c1ccccc1 (stereo not given)", "EXPERIMENTAL_VALUE": -67}
{"COMPOUND": "CCCCCCCCCCCCC(C)OC(=O)C(C(=O)Nc1c(OC)cc(OC)cc1OC)c1ccccc1 (stereo not given)", "EXPERIMENTAL_VALUE": -59}
{"COMPOUND": "CCCCCCCOC(=O)C(C(=O)Nc1c(C(C)C)cccc1C(C)C)c1ccccc1 (stereo not given)", "EXPERIMENTAL_VALUE": -71}
{"COMPOUND": "CCCCCCCCCCCCCCCCOC(=O)C(C(=O)Nc1c(C(C)C)cccc1C(C)C)c1ccccc1 (stereo not given)", "EXPERIMENTAL_VALUE": -26}
{"COMPOUND": "CCOC(=O)C(F)C(=O)Nc1c(C(C)C)cccc1C(C)C (stereo not given)", "EXPERIMENTAL_VALUE": 1}
{"COMPOUND": "CCCCCCCCCCC(C)OC(=O)C(C(=O)Nc1c(C(C)C)cccc1C(C)C)c1ccccc1 (stereo not given)", "EXPERIMENTAL_VALUE": -37}
{"COMPOUND": "CCCCCCCCCCCCC(C)OC(=O)C(C(=O)Nc1c(C(C)C)cccc1C(C)C)c1ccccc1 (stereo not given)", "EXPERIMENTAL_VALUE": -61}
{"COMPOUND": "CCCCCCCCCCCCOC(=O)C(C(=O)Nc1c(C(C)C)cc(C(C)C)cc1C(C)C)c1ccccn1 (stereo not given)", "EXPERIMENTAL_VALUE": -9}

Ask | Suppose we examine the compound CCCCCCCCCCCCOC(=O)C(C(=O)Nc1c(C(C)C)cccc1C(C)C)c1ccccn1 (stereo not given) ; what Delta TC value has been reported?
Reply | -43

Ask | Check CCCCCCCCCCCCOC(=O)C(F)C(=O)Nc1c(C(C)C)cccc1C(C)C (stereo not given) too.
Reply | -36

Ask | Check CCCOC(=O)C(C(=O)Nc1c(C(C)C)cccc1C(C)C)c1ccccc1 (stereo not given) too.
Reply | -20

Ask | Check CCCCCCCCCCOC(=O)C(C(=O)Nc1c(C(C)C)cccc1C(C)C)c1ccccc1 (stereo not given) too.
Reply | -58

----------
Test system: Rattus norvegicus
Assay: Percent of high density lipoprotein cholesterol was in cholesterol fed rat at the dose of 30 mg/kg
Type: functional
ASSAY_METRIC: Of HDL-C (%)
Respond numerically; units are % and should not be typed.

Reference set, count: 5
{"COMPOUND": "CCCCCCCCCCCCC(C)OC(=O)C(C(=O)Nc1c(OC)cc(OC)cc1OC)c1ccccc1 (stereo unspecified)", "Of HDL-C (%)": 272}
{"COMPOUND": "CCCCCCCCCCCCCCOC(=O)C(C(=O)Nc1c(C(C)C)cccc1C(C)C)c1ccccc1 (stereo unspecified)", "Of HDL-C (%)": 28}
{"COMPOUND": "CCCCCCCCCCCCOC(=O)C(C(=O)Nc1c(C(C)C)cccc1C(C)C)c1ccccc1 (stereo unspecified)", "Of HDL-C (%)": 148}
{"COMPOUND": "CCCCCCCCCCCCOC(=O)C(C(=O)Nc1c(OC)cc(OC)cc1OC)c1ccccc1 (stereo unspecified)", "Of HDL-C (%)": 127}
{"COMPOUND": "CCCCCCCCCCC(C)OC(=O)C(C(=O)Nc1c(C(C)C)cccc1C(C)C)c1ccccc1 (stereo unspecified)", "Of HDL-C (%)": 97}

Moving on to the next compound.
Ask | Suppose we examine the compound CCCCCCCCCCCCC(C)OC(=O)C(C(=O)Nc1c(C(C)C)cccc1C(C)C)c1ccccc1 (stereo unspecified) ; what Of HDL-C value has been reported?
Reply | 215

----------
System: Rattus norvegicus
Test: Percent change in total cholesterol level in cholic acid (0.5%),cholesterol(1.5%),peanut oil(5.5%) fed rats at 3 mg/kg.
Type: functional
Is Delta TC at least -50%? Then TRUE. If not, FALSE.

{"COMPOUND": "CCCCCCCCCCOC(=O)C(C(=O)Nc1c(C(C)C)cccc1C(C)C)c1ccccc1 (stereo not given)", "CLASS": "TRUE"}
{"COMPOUND": "CCCCC(C)(C)OC(=O)C(C(=O)Nc1c(C(C)C)cccc1C(C)C)c1ccccc1 (stereo not given)", "CLASS": "FALSE"}
{"COMPOUND": "CCCCCCCCCOC(=O)C(C(=O)Nc1c(C(C)C)cccc1C(C)C)c1ccccc1 (stereo not given)", "CLASS": "FALSE"}

Ask | Check this compound for Delta TC at or above -50%: CCCCCCCCCCCCC(C)OC(=O)C(C(=O)Nc1c(OC)cc(OC)cc1OC)c1ccccc1 (stereo not given)
Reply | TRUE

Ask | Check CCCCCCCCCCCCC(C)OC(=O)C(C(=O)Nc1c(C(C)C)cccc1C(C)C)c1ccccc1 (stereo not given) too.
Reply | TRUE

Ask | Check CCCCCC(C)OC(=O)C(C(=O)Nc1c(C(C)C)cccc1C(C)C)c1ccccc1 (stereo not given) too.
Reply | FALSE

Ask | Check CCCCCCCOC(=O)C(C(=O)Nc1c(C(C)C)cccc1C(C)C)c1ccccc1 (stereo not given) too.
Reply | TRUE

Ask | Check CCCCCCCCCCCCOC(=O)C(C(=O)Nc1c(C(C)C)cccc1C(C)C)c1ccccc1 (stereo not given) too.
Reply | TRUE

Ask | Check CCCCCCCCOC(=O)C(C(=O)Nc1c(C(C)C)cccc1C(C)C)c1ccccc1 (stereo not given) too.
Reply | TRUE

----------
Biological target: Sterol O-acyltransferase 1 (Rattus norvegicus, UniProt O70536)
Sequence (O70536 whole entry): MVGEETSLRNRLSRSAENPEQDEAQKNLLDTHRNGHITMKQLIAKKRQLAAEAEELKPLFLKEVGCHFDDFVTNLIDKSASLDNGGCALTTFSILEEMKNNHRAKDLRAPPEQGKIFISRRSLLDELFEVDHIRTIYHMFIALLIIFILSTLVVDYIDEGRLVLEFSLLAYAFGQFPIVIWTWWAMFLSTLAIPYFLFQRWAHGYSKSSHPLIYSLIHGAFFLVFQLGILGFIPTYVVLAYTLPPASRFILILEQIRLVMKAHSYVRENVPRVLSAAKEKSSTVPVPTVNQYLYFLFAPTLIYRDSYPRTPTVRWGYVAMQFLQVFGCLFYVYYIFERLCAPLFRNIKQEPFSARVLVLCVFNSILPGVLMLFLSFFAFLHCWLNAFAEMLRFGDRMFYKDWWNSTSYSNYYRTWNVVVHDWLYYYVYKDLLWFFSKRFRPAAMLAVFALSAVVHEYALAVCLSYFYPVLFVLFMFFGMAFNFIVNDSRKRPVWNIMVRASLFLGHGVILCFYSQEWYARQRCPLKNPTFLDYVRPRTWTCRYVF
Experiment: In vitro Acyl coenzyme A:cholesterol acyltransferase inhibition in hepatic microsomes isolated from cholesterol-fed rats
Here, each record is paired with measured pIC50 data.
Entry type: numeric. Quantity: pIC50, the -log10 of concentration in molar units.

{"MOLECULE": "CCCCCC(C)OC(=O)C(C(=O)Nc1c(C(C)C)cccc1C(C)C)c1ccccc1 (stereo unspecified)", "pIC50": 7.40}
{"MOLECULE": "CCCCCCCCCCCCC(C)OC(=O)C(C)(C)C(=O)Nc1c(C(C)C)cccc1C(C)C (stereo unspecified)", "pIC50": 7.68}
{"MOLECULE": "CCCCCCCCCCCCOC(=O)C(C(=O)Nc1c(C(C)C)cc(C(C)C)cc1C(C)C)c1ccccc1 (stereo unspecified)", "pIC50": 7.25}
{"MOLECULE": "CCCCCCCCCOC(=O)C(C(=O)Nc1c(C(C)C)cccc1C(C)C)c1ccccc1 (stereo unspecified)", "pIC50": 7.92}
{"MOLECULE": "CCCCCCCCCCC(C)OC(=O)C(C(=O)Nc1c(C(C)C)cccc1C(C)C)c1ccccc1 (stereo unspecified)", "pIC50": 7.89}

Ask | Suppose we examine the molecule CCCCCCCCCCCCC(C)(C)OC(=O)C(C(=O)Nc1c(OC)cc(OC)cc1OC)c1ccccc1 (stereo unspecified) ; what pIC50 value has been reported?
Reply | 7.70

Ask | Check CCCCCCCCCCCCOC(=O)C(C(=O)Nc1c(C(C)C)cccc1C(C)C)c1ccccc1 (stereo unspecified) too.
Reply | 8.00

Ask | Check CCCCCCCCCCCCCCC(C)(C)OC(=O)C(C(=O)Nc1c(C(C)C)cccc1C(C)C)c1ccccc1 (stereo unspecified) too.
Reply | 7.14

Ask | Check CCCCCCCCCCCCCCOC(=O)C(C(=O)Nc1c(C(C)C)cccc1C(C)C)c1ccccc1 (stereo unspecified) too.
Reply | 7.80

Ask | Check CCCCCCCCCCOC(=O)C(C(=O)Nc1c(C(C)C)cccc1C(C)C)c1ccccc1 (stereo unspecified) too.
Reply | 7.89
